- STUDY_TARGET: Myc proto-oncogene protein (Homo sapiens)
- Sequence (P01106 whole entry): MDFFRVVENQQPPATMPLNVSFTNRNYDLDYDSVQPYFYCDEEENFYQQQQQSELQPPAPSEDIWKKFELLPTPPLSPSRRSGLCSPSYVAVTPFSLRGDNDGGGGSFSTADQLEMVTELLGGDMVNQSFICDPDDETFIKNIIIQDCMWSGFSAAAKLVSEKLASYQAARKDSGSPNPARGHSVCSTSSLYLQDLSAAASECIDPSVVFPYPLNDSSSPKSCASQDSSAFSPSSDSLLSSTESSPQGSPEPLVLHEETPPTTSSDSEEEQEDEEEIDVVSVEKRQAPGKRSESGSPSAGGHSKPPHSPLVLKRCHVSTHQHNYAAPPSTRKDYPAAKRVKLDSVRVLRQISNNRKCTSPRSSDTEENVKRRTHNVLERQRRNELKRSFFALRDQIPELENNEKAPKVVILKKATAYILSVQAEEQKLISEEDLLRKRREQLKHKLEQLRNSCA
- ASSAY_EXPLANATION: Inhibition of human c-Myc assessed as reduction in c-Myc/Max/Ebox DNA complex formation using pre-formed complex of c-Myc and biotinylated DNA containing single Ebox-sequence followed by compound addition and further addition of his6-tagged c-Max and incubated for 2 hrs by AlphaScreen assay
pIC50: −log10 of the molar value.
Known pIC50 of a selection of compounds
ENDPOINT: pIC50

INSERT INTO measurements (smiles_input, study_target, value_observed) VALUES
  ('COCCNCCC(=O)Nc1sc2c(c1-c1nc3cc(-c4ccc(N5CCOCC5)nc4)ccc3s1)CCNC2', 'Myc proto-oncogene protein (Homo sapiens)', '6.00 to 6.52'),
  ('COCCNCCC(=O)Nc1sc2c(c1-c1nc3ccc(-c4ccccc4NS(C)(=O)=O)cc3s1)CCNC2', 'Myc proto-oncogene protein (Homo sapiens)', '< 5.00'),
  ('COCCNCCC(=O)Nc1sc2c(c1-c1nc3ccc(-c4c[nH]nc4C)cc3s1)CCNC2', 'Myc proto-oncogene protein (Homo sapiens)', '6.00 to 6.52'),
  ('COCCNCCC(=O)Nc1sc2c(c1-c1nc3ccc(-c4cccc5[nH]ncc45)cc3s1)CCNC2', 'Myc proto-oncogene protein (Homo sapiens)', '5.00 to 6.00');
